Target: Protein farnesyltransferase (Homo sapiens, UniProt P49354+P49356)
Assay: In vitro inhibition of farnesyltransferase farnesylation of the H-ras oncogene
Assay type: protein-complex assay
assay_readout: log10 IC50 (log10 of the value in µM)
# log10 transformed; quantity=IC50; unit=µM

molecule	target_system	log10 IC50
CCCNC(=O)N1CCC(CC(=O)N2CCN(C3c4ccc(Cl)cc4CCc4cccnc43)CC2)CC1 (centres undefined)	Protein farnesyltransferase (Homo sapiens, UniProt P49354+P49356)	-0.06
O=C(Nc1ccc[n+]([O-])c1)N1CCN(C2c3ccc(Cl)cc3CCc3cc(Br)cnc32)CC1 (centres undefined)	Protein farnesyltransferase (Homo sapiens, UniProt P49354+P49356)	-0.62
CCCC[C@H]1CN(C2c3ccc(Cl)cc3CCc3cc(Br)cnc32)CCN1C(=O)Cc1cc[n+]([O-])cc1 (some centres undefined)	Protein farnesyltransferase (Homo sapiens, UniProt P49354+P49356)	-1.22
CCN1CCC(CC(=O)N2CCN(C3c4ccc(Cl)cc4CCc4cccnc43)CC2)CC1 (centres undefined)	Protein farnesyltransferase (Homo sapiens, UniProt P49354+P49356)	0.10

Field request: log10 IC50 | item: O=C(Cc1ccc[n+]([O-])c1)N1CCN(C2c3ccc(Cl)cc3CCc3ccc[n+]([O-])c32)CC1 (centres undefined)
0.58

Field request: log10 IC50 | item: O=C(CC1CCNCC1)N1CCN([C@H]2c3ccc(Cl)cc3CCc3cc(Br)cnc32)CC1
-1.11

Field request: log10 IC50 | item: N[C@@H](CO)C(=O)N1CCC(CC(=O)N2CCN(C3c4ccc(Cl)cc4CCc4cccnc43)CC2)CC1 (some centres undefined)
0.04

Field request: log10 IC50 | item: O=C(Oc1cccnc1)N1CCN([C@@H]2c3ccc(Cl)cc3CCc3cccnc32)CC1
0.11

Field request: log10 IC50 | item: O=C(Nc1ccccc1)N1CCN(C2c3ccc(Cl)cc3CCc3cccnc32)CC1 (centres undefined)
0.04

Field request: log10 IC50 | item: O=C(Cc1cccnc1)N1CCN(C2c3ccc(Cl)cc3CCc3cc(Br)cnc32)CC1 (centres undefined)
-0.77

---

Molecular target: Protein farnesyltransferase (Homo sapiens, UniProt P49354+P49356)
Test: In vitro inhibition of farnesyltransferase farnesylation of the H-ras oncogene
Format: protein-complex assay
assay_readout: pIC50
Kindly note that pIC50 refers to -log10 of the concentration in mol/L and answer with the value alone.

# count of solved cases: 3
compound	pIC50
O=C(Nc1cccnc1)N1CCN([C@H]2c3ccc(Cl)cc3CCc3cccnc32)CC1	6.34
CC(C)(C)OC(=O)N1CCC(CC(=O)N2CCN(C3c4ccc(Cl)cc4CCc4cccnc43)CC2)CC1 (centres undefined)	5.13
CCCC[C@H]1CN(C2c3ccc(Cl)cc3CCc3cc(Br)cnc32)CCN1C(=O)CC1CCN(C(N)=O)CC1 (some centres undefined)	7.57

Now look at this one.
Any idea what pIC50 came out for O=C(Oc1ccccc1)N1CCN(C2c3ccc(Cl)cc3CCc3cccnc32)CC1 (centres undefined) on Protein farnesyltransferase (Homo sapiens, UniProt P49354+P49356)?
6.10

---

Listing of recorded log10(IC50) by entry.
Molecular target: Protein farnesyltransferase (Homo sapiens, UniProt P49354+P49356)
Assay: In vitro inhibition of farnesyltransferase farnesylation of the H-ras oncogene
Assay type: protein-complex assay
# log10 transformed; quantity=IC50; unit=nM

molecule	log10(IC50)
COCC[C@H]1CN(C2c3ccc(Cl)cc3CCc3cc(Br)cnc32)CCN1C(=O)Cc1cc[n+]([O-])cc1 (some centres undefined)	1.53

Field request: log10(IC50) | item: Clc1ccc2c(c1)CCc1cccnc1C2N1CCNCC1 (centres undefined)
4.48

Source listed as ChEMBL document CHEMBL1131493.
